tested on: alternating hairpin duplex sequence 5'-biotin-CGA3T3C(CT)2GA3T3CG; experiment: SPR binding to duplex DNA
Metric: Duplex DNA affinity K

Can you share its Duplex DNA affinity K? I mean this molecule: `CN1c2ccccc2-c2c3c1cccc3c1ccc(NC(=O)C3CC3)cc1[n+]2C`
0,1 x10^6 M^−1

Given `C[n+]1c2c3c(cccc3c3ccccc31)Sc1ccccc1-2` , state its recorded Duplex DNA affinity K.
<0,1 x10^6 M^−1

Give the measured Duplex DNA affinity K of `CC(=O)NCC#Cc1ccc2c3cccc4c3c([n+](C)c2c1)-c1ccccc1N4C` .
0,9 x10^6 M^−1

Give its Duplex DNA affinity K value. Item: CN1c2ccccc2-c2c3c1cccc3c1ccc(NC(=O)CC[S+](C)[O-])cc1[n+]2C (stereo not shown)
<0,1 x10^6 M^−1

Would you kindly share the measured Duplex DNA affinity K for `CN1c2ccccc2-c2c3c1cccc3c1ccc(CN)cc1[n+]2C` ?
1,1 x10^6 M^−1

Looking for the measured Duplex DNA affinity K of Cc1cc2c3c([n+](C)c4ccc(F)cc4c3c1)-c1cc(F)ccc1N2C [Compound 1, reference compound] , can you help?
600000 M⁻¹

Give its Duplex DNA affinity K value. Item: `CN(C)CC#Cc1ccc2c3cccc4c3c([n+](C)c2c1)-c1ccccc1N4C`
0,9 x10^6 M^−1

What measured Duplex DNA affinity K goes with `C[n+]1c2c3c(cccc3c3ccccc31)Oc1ccccc1-2` ?
<0,1 x10^6 M^−1

Data request, read-out Duplex DNA affinity K, for `COC(=O)c1ccc2c(c1)c1cccc3c1c([n+]2C)-c1ccccc1N3C`
0,2 x10^6 M^−1

Duplex DNA affinity K for `CN1c2ccccc2-c2c3c1cccc3c1ccc(NC(=O)CO)cc1[n+]2C` ?
0,7 x10^6 M^−1

meta.source: paper PMC4193996
